Please respond with reported Emax for every item in the list.
System: PPAR-α (Homo sapiens, UniProt Q07869)
Construct: expressed in transfected cells; host or cells: CV-1 (African green monkey kidney)
Sequence (Q07869 167-468): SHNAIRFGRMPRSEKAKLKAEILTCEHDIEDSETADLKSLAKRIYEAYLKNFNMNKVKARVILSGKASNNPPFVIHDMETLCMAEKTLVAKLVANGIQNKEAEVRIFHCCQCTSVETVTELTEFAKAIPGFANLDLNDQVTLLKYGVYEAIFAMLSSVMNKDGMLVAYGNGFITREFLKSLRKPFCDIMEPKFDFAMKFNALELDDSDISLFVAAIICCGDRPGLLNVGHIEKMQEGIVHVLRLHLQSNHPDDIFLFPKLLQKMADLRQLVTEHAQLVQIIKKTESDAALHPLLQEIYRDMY
Assay explanation: Measurement of PPAR-α activity (GAL4 luciferase reporter assay in CV-1 cells)
Assay type: cell-based
Applied conditions: 100(A/B): A = maximum PPAR-α activity of test compound at 3, 10, 30 and 100 μM, B = activity of the compound of WO/2011/058154 at 100 μM, 18 to 20 hours, read-out: Relative fold induction (%) of PPAR α
Structures can show the parent of a compound that is named as a salt.
Write the numeric value and follow it with the unit.

Request: Provide Emax, system PPAR-α (Homo sapiens, UniProt Q07869), entry CSc1cc(F)c(F)cc1-c1ccc(OCc2cccc(C(=O)N(CCC(C)O)CC(=O)O)c2)cc1 (stereo not shown)
Response: 15%

Request: Provide Emax, system PPAR-α (Homo sapiens, UniProt Q07869), entry `CC(C)(O)CCN(CC(=O)O)C(=O)c1cccc(COc2ccc(-c3cc(F)c(F)c4ccoc34)cc2)c1`
Response: 23%

Request: Provide Emax, system PPAR-α (Homo sapiens, UniProt Q07869), entry `CS(=O)(=O)CCN(CC(=O)O)C(=O)c1cccc(COc2ccc(-c3cc(F)c(F)c4ccoc34)cc2)c1`
Response: 11%

Request: Provide Emax, system PPAR-α (Homo sapiens, UniProt Q07869), entry `CSc1cc(F)c(F)cc1-c1ccc(OCc2cccc(C(=O)N(CC(N)=O)CC(=O)O)c2)cc1`
Response: 6.7%

Request: Provide Emax, system PPAR-α (Homo sapiens, UniProt Q07869), entry CSc1cc(F)c(F)cc1-c1ccc(OCc2cccc(C(=O)N(CC(=O)O)CC3CCN(C)CC3)c2)cc1 [Example 37, Trifluoroacetate]
Response: 10%

Request: Provide Emax, system PPAR-α (Homo sapiens, UniProt Q07869), entry CSc1cc(F)c(F)cc1-c1ccc(OCc2cccc(C(=O)N(CC(=O)O)[C@H]3CC[C@@H](N)CC3)c2)cc1 [Example 48, Trifluoroacetate]
Response: 4%

Request: Provide Emax, system PPAR-α (Homo sapiens, UniProt Q07869), entry `CC(=O)N1CCC(CN(CC(=O)O)C(=O)c2cccc(COc3ccc(-c4cc(F)c(F)c5ccoc45)cc3)c2)CC1`
Response: 6.4%
